Cited source: paper PMC4552634

- System: P. falciparum stage V gametocytes
- Set-up: BacTiter-Glo ATP luminescence viability of purified stage V gametocytes in 384-well plates, per cent inhibition versus DMSO
- applied conditions: 48 h, 5 µM; inhibitor
Among all 13,000 compounds or so, about 3,200 (25%) showed an effect of 50% or more. This is one part of the list.
measurement label: % Inhibition (%)
Quick reminder: number only, in %, skip the unit.

Please review the entries below; each comes with its answer.
### Prompt For the compound Cc1ccc(Oc2c(-c3ccccc3CN3CCCC3CN(C)C)cnn(C)c2=O)cn1 (stereo not shown) , report % Inhibition.
### Response -4.022

### Prompt Please give the documented % Inhibition of `Cc1cnc2ccc(NS(=O)(=O)c3ccc4c(Cl)cccc4c3)cc2c1N1CCNCC1`
### Response 37.46

### Prompt Provide one value: measured % Inhibition of `CCCCCCCn1c(=O)c(C(=O)Nc2c(C)cccc2C)c(O)c2ccccc21`
### Response 13.41

### Prompt // Input: `O=C(Nc1cccc(F)c1)N1CCC(NS(=O)(=O)c2ccc(Br)cc2)CC1` . Output its % Inhibition only.
### Response 2.418

More entries:
### Prompt Using known records, supply % Inhibition for OC(CNCc1ccccc1Oc1ccccc1)c1cccc(C(F)(F)F)c1 (stereo not shown)
### Response 30.17

### Prompt Consider the compound `COc1ccc(CCCc2nc(N)nc(N)c2-c2ccc(Cl)cc2)cc1` and give its recorded % Inhibition.
### Response -7.157

### Prompt Kindly indicate its recorded % Inhibition. Item: `Cc1ccc(CNC(=O)[C@H](CCCN)Nc2nc(Nc3ccccc3)ncc2C)cc1`
### Response 27.45

----------
- Tested on: P. falciparum stage V gametocytes
- Set-up: BacTiter-Glo ATP luminescence viability of purified stage V gametocytes in 384-well plates, per cent inhibition versus DMSO
- applied conditions: 48 h, 5 µM; inhibitor
The campaign covered roughly 13,000 compounds. About 3,200 (25%) showed an effect of 50% or more. The list shows a part of the results.
Catalogue of % Inhibition values
Reply with the number, then its unit.

### Prompt Check the records and state % Inhibition for `Cc1ccc(C(=O)NC2CCN(CCNC(=O)Nc3cc(C)nc4ccccc34)CC2)cc1`
### Response -7.111%

### Prompt Specify measured % Inhibition for `COc1ccc(NC(=O)NC2CCN(CCCOc3cc(C)nc4ccccc34)CC2)cc1OC` .
### Response 77.42%

### Prompt Specify reported % Inhibition for the compound shown: `CC(C)CNCc1cccc(-c2cccc(CN(CCCN3CCN(C)CC3)C(=O)/C=C/c3ccccc3)c2)c1`
### Response 106.7%

### Prompt Consider the compound `Cc1cc(N2CCCC2)nc(Nc2ccc(NC(=O)c3ccccc3C)cc2)n1` and give its recorded % Inhibition.
### Response -8.542%

### Prompt Using known records, supply % Inhibition for `COC(=O)c1ccccc1COc1ccc(CC2(NC(=O)[C@H](Nc3ccc(C#N)c4ccccc34)C(C)(C)C)CCCC2)cc1`
### Response 21.91%

Others:
### Prompt Output % Inhibition of COc1ccc(S(=O)(=O)NC2CCN(CCNC(=O)Nc3cc(C)nc4ccccc34)C2)cc1 (stereo not drawn)
### Response -35.07%

### Prompt Let me know recorded % Inhibition for `CC(=Nc1ccc(Cl)c(Cl)c1)N(C)C` , thanks.
### Response -6.563%

### Prompt Read the entry N#Cc1ccc(-c2ccc(OCC(O)CN3CCCN(Cc4cccc(O)c4Cl)CC3)cc2)cc1 (stereo not drawn) and write its reported % Inhibition.
### Response -23.75%

### Prompt Please give the documented % Inhibition of `Cc1cccc2[nH]c(-c3ccc(-c4cccc(NC(=O)c5cnccc5C(F)(F)F)c4)cc3)nc12`
### Response -14.87%

### Prompt Entry `Cc1[nH]c(C)c(-c2ccc(OCCOc3ccc(C(F)(F)F)cn3)cc2)c(=O)c1Br` needs its % Inhibition filled in; supply it.
### Response 40.45%

### Prompt Answer with reported % Inhibition of `CCCc1cc(NC2CCN(C)CC2)nc(Nc2cccc(OC)c2)n1`
### Response 21.8%
